The entries below come with measured SERT, percent of control-specific binding values attached.
biological target: serotonin transporter (SERT) (Homo sapiens); construct: host or cells: CHO cells (membrane preparation); assay: biochemical; assay type: binding; conditions: 10 µM
Sequence (P31645 whole entry): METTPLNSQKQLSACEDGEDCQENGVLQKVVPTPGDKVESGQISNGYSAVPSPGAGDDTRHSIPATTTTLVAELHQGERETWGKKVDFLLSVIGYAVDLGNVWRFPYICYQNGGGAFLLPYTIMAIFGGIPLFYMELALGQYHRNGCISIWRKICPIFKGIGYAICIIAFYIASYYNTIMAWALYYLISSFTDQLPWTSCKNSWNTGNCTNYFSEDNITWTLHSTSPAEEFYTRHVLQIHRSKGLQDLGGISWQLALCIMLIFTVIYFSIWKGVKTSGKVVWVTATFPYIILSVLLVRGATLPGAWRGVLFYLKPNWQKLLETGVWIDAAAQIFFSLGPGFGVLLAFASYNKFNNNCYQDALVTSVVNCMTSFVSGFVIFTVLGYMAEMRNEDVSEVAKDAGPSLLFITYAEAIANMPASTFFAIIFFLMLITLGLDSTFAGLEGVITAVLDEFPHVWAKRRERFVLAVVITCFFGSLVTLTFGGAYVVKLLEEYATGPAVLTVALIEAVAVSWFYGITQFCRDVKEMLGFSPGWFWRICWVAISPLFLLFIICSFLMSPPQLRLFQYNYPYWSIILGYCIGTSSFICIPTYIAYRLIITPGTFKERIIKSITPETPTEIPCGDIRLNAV
observable: SERT, percent of control-specific binding (%)

compound: CNC(C)Cc1ccc2c(c1)OCO2 (stereo not shown) [MDMA, reference compound]
unit_annotation: %
numeric_value: 46
--
compound: COc1cc(CCN)c(OC)cc1Br [2C-B, reference compound]
unit_annotation: %
numeric_value: 42
--
compound: COc1cc(CC(C)N)c(OC)cc1Br (stereo not shown) [DOB, reference compound]
unit_annotation: %
numeric_value: 53
--
compound: CCOc1c(OC)cc(CCN)cc1OC [escaline]
unit_annotation: %
numeric_value: 0

---

target: alpha2A receptor (Homo sapiens); construct: host or cells: CHO cells (membrane preparation); experiment: Eurofins Cerep competition binding assay at alpha2A receptor; settings: 10 μM test ligand; [3H]RX 821002; recombinant receptor in CHO cells
Sequence (P08913 whole entry): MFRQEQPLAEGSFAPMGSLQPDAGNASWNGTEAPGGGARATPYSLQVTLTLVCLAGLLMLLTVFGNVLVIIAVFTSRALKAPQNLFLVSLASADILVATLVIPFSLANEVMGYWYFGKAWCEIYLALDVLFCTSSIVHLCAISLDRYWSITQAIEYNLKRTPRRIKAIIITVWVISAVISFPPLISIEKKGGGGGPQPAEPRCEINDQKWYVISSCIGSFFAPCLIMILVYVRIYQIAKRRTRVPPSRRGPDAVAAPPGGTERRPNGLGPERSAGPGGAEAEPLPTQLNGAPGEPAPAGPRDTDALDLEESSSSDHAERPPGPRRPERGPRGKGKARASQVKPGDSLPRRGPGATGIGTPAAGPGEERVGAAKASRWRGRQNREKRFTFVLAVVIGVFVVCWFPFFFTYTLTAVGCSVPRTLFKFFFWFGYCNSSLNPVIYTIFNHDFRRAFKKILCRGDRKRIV
observable: α-2A, percent of control-specific binding

compound: N#Cc1ccc2[nH]cc(CCCCN3CCN(c4ccc5oc(C(N)=O)cc5c4)CC3)c2c1
result: 65%

compound: CCOc1c(OC)cc(CCN)cc1OC
result: 45%

compound: O=c1n(CCCN2CCN(c3cccc(Cl)c3)CC2)nc2ccccn12
result: 91%

compound: Brc1cc2c(cc1CCCN1CCCC1)OCO2
result: 55%

compound: CNCC[C@H](Oc1cccc2ccccc12)c1cccs1
result: 54%

compound: N[C@@H](Cc1c[nH]c2ccccc12)C(=O)O
result: −4%

compound: O=C(CCc1cc2c(cc1Br)OCO2)N1CCCC1
result: 4%

compound: NCCc1c[nH]c2ccc(O)cc12
result: 18%

compound: COc1cc(CC(C)N)c(OC)cc1Br (stereo not shown) [DOB, reference compound]
result: 66%

compound: CCN(CC)C/C=C/c1ccc2c(c1)OCO2
result: 34%

compound: CNC(C)Cc1ccc2c(c1)OCO2 (stereo not shown) [MDMA, reference compound]
result: 27%

compound: COc1ccc2cccc(CCNC(C)=O)c2c1
result: 2%

compound: COc1cc(CCN)c(OC)cc1Br [2C-B, reference compound]
result: 88%

compound: C/C(=C\c1ccc2c(c1)OCO2)CN1CCCC1
result: 75%

compound: Cc1ccc(Sc2ccccc2N2CCNCC2)c(C)c1
result: 62%

compound: CCCOc1c(OC)cc(CCN)cc1OC
result: 40%

compound: c1cc2c(cc1CCCN1CCCC1)OCO2
result: 36%

compound: O=C(CCc1ccc2c(c1)OCO2)N1CCCC1
result: 5%

compound: CN(C)CCCN1c2ccccc2CCc2ccccc21
result: 57%

compound: CC(NC(C)(C)C)C(=O)c1cccc(Cl)c1 (stereo not shown)
result: 2%

compound: COc1ccc2[nH]cc(CCNC(C)=O)c2c1
result: −7%

compound: COc1cc(CCN)cc(OC)c1OC
result: 57%

---

Biological target: UniProt:P08908
Sequence (P08908 1-422): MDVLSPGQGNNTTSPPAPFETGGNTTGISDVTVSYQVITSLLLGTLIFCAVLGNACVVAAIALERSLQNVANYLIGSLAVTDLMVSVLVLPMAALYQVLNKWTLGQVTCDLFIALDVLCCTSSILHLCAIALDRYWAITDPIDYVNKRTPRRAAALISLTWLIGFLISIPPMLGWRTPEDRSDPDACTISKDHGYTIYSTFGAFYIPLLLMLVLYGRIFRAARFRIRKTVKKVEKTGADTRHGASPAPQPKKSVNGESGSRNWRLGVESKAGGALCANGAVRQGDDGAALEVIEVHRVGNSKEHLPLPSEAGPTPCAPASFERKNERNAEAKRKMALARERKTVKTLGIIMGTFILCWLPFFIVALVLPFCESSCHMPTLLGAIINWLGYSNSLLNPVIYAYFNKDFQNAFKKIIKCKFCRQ

compound: CCN(CC)CCCc1ccc2c(c1)OCO2 [C(I)]
Ki: 2.9 µM
//
compound: COc1cc2c(cc1CCCN1CCCC1)OCO2 [C(V)]
Ki: 5 µM
//
compound: COc1cc2c(cc1CCC(=O)N1CCCC1)OCO2 [F(V)]
Ki: 364 µM
//
compound: O=C(CCc1cc2c(cc1Br)OCO2)N1CCCC1 [F(IV)]
Ki: 84.5 µM
//
compound: CCOc1c(OC)cc(CCN)cc1OC [escaline]
Ki: 12.4 µM
//
compound: O=C(CCc1ccc2c(c1)OCO2)N1CCCC1 [F(III)]
Ki: > 1000 µM
//
compound: c1cc2c(cc1CCCN1CCCC1)OCO2 [C(III)]
Ki: 2.33 µM
//
compound: COc1cc(CCN)c(OC)cc1Br [2C-B, reference compound]
Ki: 0.2 µM
//
compound: CNC(C)Cc1ccc2c(c1)OCO2 (stereo not drawn) [MDMA, reference compound]
Ki: 11 µM
//
compound: CC(Cc1ccc2c(c1)OCO2)CN1CCCC1 (racemic) [A(II)]
Ki: 8 µM
//
compound: Brc1cc2c(cc1CCCN1CCCC1)OCO2 [C(IV)]
Ki: 0.596 µM
//
compound: C/C(=C\c1ccc2c(c1)OCO2)CN1CCCC1 [B(II)]
Ki: 824 µM
